Where do these numbers come from? They come from patent US20050181376A1.

- Tested on: human microsomal triglyceride transfer protein mRNA
- assay.comment: Antisense inhibition of human microsomal triglyceride transfer protein mRNA levels, quantitative real-time PCR
- measurement.conditions: averages from two experiments
Strand notation (5' to 3'): a small letter for the sugar, then the base; units joined by * are phosphorothioate-linked, units joined directly phosphodiester-linked; [ ] holds rarer units or linkages, { } end groups; capitals alone tell only the bases. e = 2'-O-(2-methoxyethyl) (MOE); [5mC] = 5-methylcytosine; d = 2'-deoxy (DNA)
Everything with % INHIB (inhibition of human microsomal triglyceride transfer protein mRNA levels) lower than 30% is false; everything else, including exactly 30%, is true.

Tell me whether % INHIB (inhibition of human microsomal triglyceride transfer protein mRNA levels) is at least 30% here: 144418 (eA*e[5mC]*eA*eG*eT*dG*dG*d[5mC]*dT*d[5mC]*dT*dG*dG*dA*dA*eG*eA*e[5mC]*e[5mC]*eT; antisense) [compound 144418] false

Tell me whether % INHIB (inhibition of human microsomal triglyceride transfer protein mRNA levels) is at least 30% here: 144422 (e[5mC]*e[5mC]*eT*eG*eG*dA*dG*dG*dA*dT*dA*dA*dT*dG*d[5mC]*eT*eG*e[5mC]*eT*eG; antisense) [compound 144422] true

Tell me whether % INHIB (inhibition of human microsomal triglyceride transfer protein mRNA levels) is at least 30% here: 144411 (eA*e[5mC]*eG*eT*eG*dA*dG*d[5mC]*dT*dT*dG*dT*dA*d[5mC]*dA*eG*e[5mC]*e[5mC]*eG*eG; antisense) [compound 144411] false

Tell me whether % INHIB (inhibition of human microsomal triglyceride transfer protein mRNA levels) is at least 30% here: 144444 (eG*eA*eT*eG*eA*dT*dT*d[5mC]*dA*dA*dA*dA*dT*dG*dA*e[5mC]*eG*e[5mC]*eT*eG; antisense) [compound 144444] true

====

As shown below, each of these substances has a reported % INHIB (inhibition of mouse microsomal triglyceride transfer protein mRNA levels) value.
- Test system: mouse microsomal triglyceride transfer protein mRNA
- assay.comment: Antisense inhibition of mouse microsomal triglyceride transfer protein mRNA levels in primary hepatocytes, quantitative real-time PCR
- Type: cell-based
- Design: concentration or dose not given beside the values
- measurement.conditions: averages from two experiments
Strand notation (5' to 3'): a small letter for the sugar, then the base; units joined by * are phosphorothioate-linked, units joined directly phosphodiester-linked; [ ] holds rarer units or linkages, { } end groups; capitals alone tell only the bases. e = 2'-O-(2-methoxyethyl) (MOE); [5mC] = 5-methylcytosine; d = 2'-deoxy (DNA)
# number only, unit % dropped from output

GET /value?item= 144468 (eG*eA*eT*e[5mC]*eA*dT*dG*d[5mC]*dT*dG*dG*d[5mC]*dT*d[5mC]*d[5mC]*e[5mC]*eT*e[5mC]*eT*eG; antisense) [compound 144468] &field=% INHIB (inhibition of mouse microsomal triglyceride transfer protein mRNA levels) returns 0

GET /value?item= 144469 (eG*eA*eG*eT*eA*d[5mC]*dG*dT*dG*dA*dG*d[5mC]*dT*dT*dG*eT*eA*eT*eA*eG; antisense) [compound 144469] &field=% INHIB (inhibition of mouse microsomal triglyceride transfer protein mRNA levels) returns 0

GET /value?item= 144494 (eA*eA*eG*eG*e[5mC]*dT*dG*dT*dA*dT*dG*dT*dG*dG*dA*e[5mC]*eG*e[5mC]*eT*eG; antisense) [compound 144494] &field=% INHIB (inhibition of mouse microsomal triglyceride transfer protein mRNA levels) returns 27

GET /value?item= 144507 (eT*e[5mC]*eT*e[5mC]*eA*dG*dA*dG*dT*dT*d[5mC]*dT*dG*dT*dT*eG*eA*eT*eG*eG; antisense) [compound 144507] &field=% INHIB (inhibition of mouse microsomal triglyceride transfer protein mRNA levels) returns 0

GET /value?item= 144470 (eG*eT*eA*eG*e[5mC]*d[5mC]*d[5mC]*dA*d[5mC]*dG*d[5mC]*dT*dG*dT*d[5mC]*eT*eT*eG*e[5mC]*eG; antisense) [compound 144470] &field=% INHIB (inhibition of mouse microsomal triglyceride transfer protein mRNA levels) returns 5

GET /value?item= 144489 (eG*eT*eG*eG*e[5mC]*dT*dG*dA*d[5mC]*dG*dG*dG*d[5mC]*d[5mC]*d[5mC]*eT*eT*e[5mC]*eT*e[5mC]; antisense) [compound 144489] &field=% INHIB (inhibition of mouse microsomal triglyceride transfer protein mRNA levels) returns 42

GET /value?item= 144502 (e[5mC]*eT*e[5mC]*eG*e[5mC]*dG*dA*dT*dA*d[5mC]*d[5mC]*dA*d[5mC]*dA*dG*eA*e[5mC]*eT*eG*eA; antisense) [compound 144502] &field=% INHIB (inhibition of mouse microsomal triglyceride transfer protein mRNA levels) returns 51

GET /value?item= 144510 (eG*eG*eT*e[5mC]*eT*dT*d[5mC]*dT*d[5mC]*d[5mC]*dT*dG*dA*dA*dT*eA*eG*eG*eT*eT; antisense) [compound 144510] &field=% INHIB (inhibition of mouse microsomal triglyceride transfer protein mRNA levels) returns 0

GET /value?item= 144498 (eT*eG*eA*e[5mC]*eA*dT*dG*d[5mC]*d[5mC]*dA*dG*d[5mC]*dA*dT*dA*eA*eG*eA*eG*eT; antisense) [compound 144498] &field=% INHIB (inhibition of mouse microsomal triglyceride transfer protein mRNA levels) returns 44

GET /value?item= 144499 (e[5mC]*eG*e[5mC]*eT*eG*dA*d[5mC]*dA*dG*dG*dG*dT*d[5mC]*dG*d[5mC]*e[5mC]*eG*eG*eA*eT; antisense) [compound 144499] &field=% INHIB (inhibition of mouse microsomal triglyceride transfer protein mRNA levels) returns 38

GET /value?item= 144474 (eT*eA*eG*eA*eA*d[5mC]*dT*d[5mC]*d[5mC]*dT*dT*dG*dA*d[5mC]*d[5mC]*eT*eT*e[5mC]*e[5mC]*e[5mC]; antisense) [compound 144474] &field=% INHIB (inhibition of mouse microsomal triglyceride transfer protein mRNA levels) returns 16

GET /value?item= 144503 (eG*eT*eT*eA*eT*d[5mC]*dA*d[5mC]*d[5mC]*dA*d[5mC]*dA*dG*d[5mC]*d[5mC]*eA*e[5mC]*e[5mC]*e[5mC]*eG; antisense) [compound 144503] &field=% INHIB (inhibition of mouse microsomal triglyceride transfer protein mRNA levels) returns 50

GET /value?item= 144477 (e[5mC]*e[5mC]*e[5mC]*eA*eG*d[5mC]*dA*d[5mC]*d[5mC]*dT*dG*dG*dT*dT*dT*eG*e[5mC]*e[5mC]*eG*eT; antisense) [compound 144477] &field=% INHIB (inhibition of mouse microsomal triglyceride transfer protein mRNA levels) returns 94

GET /value?item= 144472 (eG*e[5mC]*e[5mC]*e[5mC]*eT*dG*dG*dA*dA*dG*dA*dT*dG*d[5mC]*dT*e[5mC]*eT*eT*e[5mC]*eT; antisense) [compound 144472] &field=% INHIB (inhibition of mouse microsomal triglyceride transfer protein mRNA levels) returns 0

GET /value?item= 144479 (e[5mC]*eA*e[5mC]*e[5mC]*eT*dG*d[5mC]*d[5mC]*dA*d[5mC]*dT*dT*dG*d[5mC]*dT*eT*e[5mC]*e[5mC]*e[5mC]*eG; antisense) [compound 144479] &field=% INHIB (inhibition of mouse microsomal triglyceride transfer protein mRNA levels) returns 65

====

As shown below, each of these substances has a reported % INHIB (inhibition of human microsomal triglyceride transfer protein mRNA levels) value.
- Tested on: human microsomal triglyceride transfer protein mRNA
- assay.comment: Antisense inhibition of human microsomal triglyceride transfer protein mRNA levels, quantitative real-time PCR
- measurement.conditions: averages from two experiments
Strand notation (5' to 3'): a small letter for the sugar, then the base; units joined by * are phosphorothioate-linked, units joined directly phosphodiester-linked; [ ] holds rarer units or linkages, { } end groups; capitals alone tell only the bases. e = 2'-O-(2-methoxyethyl) (MOE); [5mC] = 5-methylcytosine; d = 2'-deoxy (DNA)
# number only, unit % dropped from output

[
  {
    "substance": "144439 (e[5mC]*eG*e[5mC]*eT*eG*dG*dA*dA*dG*dT*dA*d[5mC]*dT*dA*dT*e[5mC]*e[5mC]*eG*eG*e[5mC]; antisense) [compound 144439]",
    "val": 52
  }
]

Moving on to another substance below.
# 144431 (e[5mC]*eG*eA*eG*eT*dA*dG*dA*dG*dA*dA*dT*dG*dT*d[5mC]*eT*eA*eG*eG*e[5mC]; antisense) [compound 144431] with human microsomal triglyceride transfer protein mRNA: % INHIB (inhibition of human microsomal triglyceride transfer protein mRNA levels) is 26
